Value source: patent US20230272056A1

experimental system: T1, human LAP-TGFB1 Fc fusion (human)
T1 construct: also called human LAP-TGFβ1-Fc; human LAP-TGFβ-Fc isoform 1
T1 sequence (chain, as listed by the source limits assumed): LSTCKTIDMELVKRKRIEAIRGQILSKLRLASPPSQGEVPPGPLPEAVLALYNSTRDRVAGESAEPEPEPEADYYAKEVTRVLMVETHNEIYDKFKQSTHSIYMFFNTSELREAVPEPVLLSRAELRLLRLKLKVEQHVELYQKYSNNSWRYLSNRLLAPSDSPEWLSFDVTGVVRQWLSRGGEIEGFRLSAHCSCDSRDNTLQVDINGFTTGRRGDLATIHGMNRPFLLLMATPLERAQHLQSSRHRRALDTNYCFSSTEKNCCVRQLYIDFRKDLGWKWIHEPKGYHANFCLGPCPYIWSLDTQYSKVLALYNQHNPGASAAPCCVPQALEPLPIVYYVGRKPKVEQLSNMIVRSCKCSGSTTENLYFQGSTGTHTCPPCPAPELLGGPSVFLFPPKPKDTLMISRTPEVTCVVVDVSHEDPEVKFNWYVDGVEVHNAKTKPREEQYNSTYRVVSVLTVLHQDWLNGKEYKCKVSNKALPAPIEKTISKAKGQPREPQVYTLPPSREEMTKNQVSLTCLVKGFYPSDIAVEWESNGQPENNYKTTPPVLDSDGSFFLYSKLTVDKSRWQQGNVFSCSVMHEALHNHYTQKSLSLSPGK
measurement protocol: BLI off-rate screen
List of koff values.
The response must be a number in s⁻¹ with no trailing unit.

State, in one line, measured koff of VH S31Y (70BIT) (Fab, V domains shown) VH: EVQLVQSGAEVKKPGASVKVSCKASGYTFTYYWMHWVRQAPGQGLEWMGRIDPQSGGIKYAQKFQGRATLTVDTSTSTAYMELSRLRSDDTAVYYCARWDYGGYFDVWGQGTLVTVSS VL: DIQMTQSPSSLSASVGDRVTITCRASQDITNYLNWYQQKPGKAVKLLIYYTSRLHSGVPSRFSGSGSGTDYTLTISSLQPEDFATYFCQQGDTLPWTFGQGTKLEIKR
0.0361

Give a short answer stating reported koff for VL N34Y (47BIT) (Fab, V domains shown) VH: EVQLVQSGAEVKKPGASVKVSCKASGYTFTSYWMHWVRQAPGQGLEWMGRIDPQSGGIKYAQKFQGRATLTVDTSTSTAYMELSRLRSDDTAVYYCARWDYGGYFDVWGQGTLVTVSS VL: DIQMTQSPSSLSASVGDRVTITCRASQDITNYLYWYQQKPGKAVKLLIYYTSRLHSGVPSRFSGSGSGTDYTLTISSLQPEDFATYFCQQGDTLPWTFGQGTKLEIKR .
0.0436

Indicate its recorded koff; the binder in question is VL I29Y (43BIT) (Fab, V domains shown) VH: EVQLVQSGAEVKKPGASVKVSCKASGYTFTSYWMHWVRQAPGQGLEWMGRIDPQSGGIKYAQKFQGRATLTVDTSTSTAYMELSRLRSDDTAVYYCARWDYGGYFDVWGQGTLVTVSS VL: DIQMTQSPSSLSASVGDRVTITCRASQDYTNYLNWYQQKPGKAVKLLIYYTSRLHSGVPSRFSGSGSGTDYTLTISSLQPEDFATYFCQQGDTLPWTFGQGTKLEIKR
0.0264
